MIC overview
Test system: Aspergillus fumigatus
assay.details: Antifungal activity against Aspergillus fumigatus TCC MYA3626 after 48 hrs by two fold serial dilution method
Format: functional
test.parameters: TCC MYA3626, 48 h
measure: MIC (µg/mL)

- compound: "COc1c(OCC(O)CNC(=N)N)cc2oc3cc(OCC(O)CNC(=N)N)c(CC=C(C)C)c(O)c3c(=O)c2c1CC=C(C)C (centres undefined)"
  prefix.operator: "="
  reading: 6.25
- compound: "CC[C@H](C)C[C@H](C)CCCCCCCCC(=O)N[C@H]1C[C@@H](O)[C@@H](NCCN)NC(=O)[C@@H]2[C@@H](O)CCN2C(=O)[C@H]([C@H](O)CCN)NC(=O)[C@H]([C@H](O)[C@@H](O)c2ccc(O)cc2)NC(=O)[C@@H]2C[C@@H](O)CN2C(=O)[C@H]([C@@H](C)O)NC1=O"
  prefix.operator: ">"
  reading: 50
- compound: "CCCCN(CCCC)CC(O)COc1cc2oc3cc(OCC(O)CN(CCCC)CCCC)c(OC)c(CC=C(C)C)c3c(=O)c2c(O)c1CC=C(C)C (centres undefined)"
  prefix.operator: "="
  reading: 6.25
- compound: "C[C@@H]1C/C=C/C=C/C=C/C=C/[C@H](O[C@@H]2O[C@H](C)[C@@H](O)[C@H](N)[C@@H]2O)C[C@@H]2O[C@](O)(C[C@@H](O)C[C@H]3O[C@@H]3/C=C/C(=O)O1)C[C@H](O)[C@H]2C(=O)O"
  prefix.operator: "="
  reading: 6.25

###

Test system: Candida albicans
assay.details: Antifungal activity against Candida albicans ATCC 10231 after 24 hrs by two fold serial dilution method
Assay type: functional
test.parameters: ATCC 10231, 24 h
MIC overview

- compound: "C[C@@H]1C/C=C/C=C/C=C/C=C/[C@H](O[C@@H]2O[C@H](C)[C@@H](O)[C@H](N)[C@@H]2O)C[C@@H]2O[C@](O)(C[C@@H](O)C[C@H]3O[C@@H]3/C=C/C(=O)O1)C[C@H](O)[C@H]2C(=O)O [NATAMYCIN]"
  MIC: "6.25 µg/mL"
- compound: "COc1c(OCC(O)CNC2CCCCCCC2)cc2oc3cc(OCC(O)CNC4CCCCCCC4)c(CC=C(C)C)c(O)c3c(=O)c2c1CC=C(C)C (stereo not given)"
  MIC: "6.25 µg/mL"
- compound: "CCCCN(CCCC)CC(O)COc1cc2oc3cc(OCC(O)CN(CCCC)CCCC)c(OC)c(CC=C(C)C)c3c(=O)c2c(O)c1CC=C(C)C (stereo not given)"
  MIC: "3.13 µg/mL"
- compound: "COc1c(OCC(O)CNCCNCCNCCN)cc2oc3cc(OCC(O)CNCCNCCNCCN)c(CC=C(C)C)c(O)c3c(=O)c2c1CC=C(C)C (stereo not given)"
  MIC: "12.5 µg/mL"
- compound: "COc1c(OCC(O)CNCCNCCN)cc2oc3cc(OCC(O)CNCCNCCN)c(CC=C(C)C)c(O)c3c(=O)c2c1CC=C(C)C (stereo not given)"
  MIC: "6.25 µg/mL"
- compound: "COc1c(OCC(O)Cn2ccnc2)cc2oc3cc(OCC(O)Cn4ccnc4)c(CC=C(C)C)c(O)c3c(=O)c2c1CC=C(C)C (stereo not given)"
  MIC: "12.5 µg/mL"
- compound: "COc1c(OCC(O)CN)cc2oc3cc(OCC(O)CN)c(CC=C(C)C)c(O)c3c(=O)c2c1CC=C(C)C (stereo not given)"
  MIC: "6.25 µg/mL"
- compound: "COc1c(OCC(O)CNC(CO)(CO)CO)cc2oc3cc(OCC(O)CNC(CO)(CO)CO)c(CC=C(C)C)c(O)c3c(=O)c2c1CC=C(C)C (stereo not given)"
  MIC: "6.25 µg/mL"
- compound: "COc1c(OCC(O)CN2CCCCC2)cc2oc3cc(OCC(O)CN4CCCCC4)c(CC=C(C)C)c(O)c3c(=O)c2c1CC=C(C)C (stereo not given)"
  MIC: "6.25 µg/mL"
- compound: "COC(=O)[C@H](CCCNC(=N)N)NC(=O)[C@H](CCCNC(=N)N)NC(=O)COc1cc2oc3cc(OCC(=O)N[C@@H](CCCNC(=N)N)C(=O)N[C@@H](CCCNC(=N)N)C(=O)OC)c(OC)c(CC=C(C)C)c3c(=O)c2c(O)c1CC=C(C)C"
  MIC: "6.25 µg/mL"
- compound: "COc1c(OCC(O)CNCCN)cc2oc3cc(OCC(O)CNCCN)c(CC=C(C)C)c(O)c3c(=O)c2c1CC=C(C)C (stereo not given)"
  MIC: "6.25 µg/mL"
- compound: "COc1c(OCC2CO2)cc2oc3cc(OCC4CO4)c(CC=C(C)C)c(O)c3c(=O)c2c1CC=C(C)C (stereo not given)"
  MIC: "> 50 µg/mL"
- compound: "COc1c(OCC(=O)N[C@@H](CCCNC(=N)N)C(N)=O)cc2oc3cc(OCC(=O)N[C@@H](CCCNC(=N)N)C(N)=O)c(CC=C(C)C)c(O)c3c(=O)c2c1CC=C(C)C"
  MIC: "6.25 µg/mL"
- compound: "CCCN(CCC)CC(O)COc1cc2oc3cc(OCC(O)CN(CCC)CCC)c(OC)c(CC=C(C)C)c3c(=O)c2c(O)c1CC=C(C)C (stereo not given)"
  MIC: "3.13 µg/mL"
- compound: "CC[N+](C)(CC)CC(O)COc1cc2oc3cc(OCC(O)C[N+](C)(CC)CC)c(OC)c(CC=C(C)C)c3c(=O)c2c(O)c1CC=C(C)C.[I-].[I-] (stereo not given)"
  MIC: "12.5 µg/mL"

###

Test system: Candida albicans
assay.details: Antifungal activity against Candida albicans ATCC 10231 after 24 hrs by two fold serial dilution method
Assay type: functional
test.parameters: ATCC 10231, 24 h

- molecule: "COc1c(OCC(O)CNCc2ccc(F)cc2)cc2oc3cc(OCC(O)CNCc4ccc(F)cc4)c(CC=C(C)C)c(O)c3c(=O)c2c1CC=C(C)C (stereo not drawn)"
  prefix.operator: "="
  MIC, µg/mL: 6.25
- molecule: "COC(=O)[C@H](CCCNC(=N)N)NC(=O)COc1cc2oc3cc(OCC(=O)N[C@@H](CCCNC(=N)N)C(=O)OC)c(OC)c(CC=C(C)C)c3c(=O)c2c(O)c1CC=C(C)C"
  prefix.operator: "="
  MIC, µg/mL: 6.25
- molecule: "CCCCCCN(CCCCCC)CC(O)COc1cc2oc3cc(OCC(O)CN(CCCCCC)CCCCCC)c(OC)c(CC=C(C)C)c3c(=O)c2c(O)c1CC=C(C)C (stereo not drawn)"
  prefix.operator: "="
  MIC, µg/mL: 12.5
- molecule: "COc1c(OCC(O)C[N+](C)(C)C)cc2oc3cc(OCC(O)C[N+](C)(C)C)c(CC=C(C)C)c(O)c3c(=O)c2c1CC=C(C)C.[I-].[I-] (stereo not drawn)"
  prefix.operator: "="
  MIC, µg/mL: 12.5
- molecule: "COc1c(OCC(O)CNCCNC(=N)N)cc2oc3cc(OCC(O)CNC(=N)N)c(CC=C(C)C)c(O)c3c(=O)c2c1CC=C(C)C (stereo not drawn)"
  prefix.operator: "="
  MIC, µg/mL: 6.25
- molecule: "CCCCCCNCC(O)COc1cc2oc3cc(OCC(O)CNCCCCCC)c(OC)c(CC=C(C)C)c3c(=O)c2c(O)c1CC=C(C)C (stereo not drawn)"
  prefix.operator: "="
  MIC, µg/mL: 12.5
- molecule: "COc1c(OCC(O)CN2CCNCC2)cc2oc3cc(OCC(O)CN4CCNCC4)c(CC=C(C)C)c(O)c3c(=O)c2c1CC=C(C)C (stereo not drawn)"
  prefix.operator: "="
  MIC, µg/mL: 12.5
- molecule: "CCCCCCCCNCC(O)COc1cc2oc3cc(OCC(O)CNCCCCCCCC)c(OC)c(CC=C(C)C)c3c(=O)c2c(O)c1CC=C(C)C (stereo not drawn)"
  prefix.operator: ">"
  MIC, µg/mL: 50
- molecule: "COc1c(OCC(O)CN(C)C)cc2oc3cc(OCC(O)CN(C)C)c(CC=C(C)C)c(O)c3c(=O)c2c1CC=C(C)C (stereo not drawn)"
  prefix.operator: "="
  MIC, µg/mL: 6.25
- molecule: "COc1c(OCC(O)CN(C)Cc2ccccc2)cc2oc3cc(OCC(O)CN(C)Cc4ccccc4)c(CC=C(C)C)c(O)c3c(=O)c2c1CC=C(C)C (stereo not drawn)"
  prefix.operator: "="
  MIC, µg/mL: 12.5
- molecule: "CC[C@H](C)C[C@H](C)CCCCCCCCC(=O)N[C@H]1C[C@@H](O)[C@@H](NCCN)NC(=O)[C@@H]2[C@@H](O)CCN2C(=O)[C@H]([C@H](O)CCN)NC(=O)[C@H]([C@H](O)[C@@H](O)c2ccc(O)cc2)NC(=O)[C@@H]2C[C@@H](O)CN2C(=O)[C@H]([C@@H](C)O)NC1=O"
  prefix.operator: "="
  MIC, µg/mL: 0.1
- molecule: "CCCNCC(O)COc1cc2oc3cc(OCC(O)CNCCC)c(OC)c(CC=C(C)C)c3c(=O)c2c(O)c1CC=C(C)C (stereo not drawn)"
  prefix.operator: "="
  MIC, µg/mL: 6.25
- molecule: "COc1c(OCC(O)CN2CCCC2)cc2oc3cc(OCC(O)CN4CCCC4)c(CC=C(C)C)c(O)c3c(=O)c2c1CC=C(C)C (stereo not drawn)"
  prefix.operator: "="
  MIC, µg/mL: 6.25
